Test: soluble on expression in E. coli; label from the status in PepcDB or PDB records
endpoint.name: soluble on expression in E. coli

sequence.chain | recorded.measurement
MSLKPVIGITGNRLVKGVDVFYGHRVTYTQQRYVDAIQKVGGFPIALPIDDPSTAVQAISLVDGLLLTGGQDITPQLYLEEPSQEIGAYFPPRDSYEIALVRAALDAGKPIFAICRGMQLVNVALGGTLYQDISQVETKALQHLQRVDEQLGSHTIDIEPTSELAKHHPNKKLVNSLHHQFIKKLAPSFKVTARTADGMIEAVEGDNLPSWYLGVQWHPELMFQTDPESEQLFQALVDESKKTMVKEGHHHHHH | soluble
KDWEKVVYGFATLYICSFVLDQVVNSARQSVQFFIISNKYEEIGRHINEYPHRGVTIINATGFYTGREVKMMFVLAKKRESTIIFRLIKDIDPNAFVSQSAVIGVYGEGFDHIKVK | not soluble
MAHHHHHHMSFKEMRLAFEGSKNIYESSLLTFKGVDGYDVYNCSLLFQYKGKHHLFGRFERREKSSDSRVRLFVETGKDEYTVVPDQLTYQLEDPFVSKVQGSLFFGGTQVIKSGGNVTGYFCDFYHGMPQLLTYYTTGPDLMRSIRIVQLADGTIGIFSCHKTEGSCLIGFTTVNSLNEVTREVIAEAKPINNAPFLGAWGGVNQAYLLSSGNIGCICHHGYLDKDANGEQRNVCCITSFVYDPKRNNTHTFQLIGTRGCFPDCPSKSPSVADCAFASGIVMREDGKCDLYSGLGDTHEGRITIDYPFKGYGTVVNDLVF | soluble
MSSSSPNSSRSEAVNGRVVVPTGGSRRENSGPARGPAGFSATVLPCDEATKAAFAKDWKDLEQENLSSADYYFNSYAHFGIHEEMIKDSVRTGCYQRAICQNAHLFANKVVLDVGSGTGILSLFAAKAGAKHVYGIECSEIVNIARKIVKENDMEDKVTFVQGKAEEVSLPVEKVDIIISEWMGYFLLYESMLDTVLFCRDKWLKPGGMIFPDKAALYVAAIEDADYKEEKIGYWGNVYGFNFSCVRRCVMEEPIVDTVDENAVSTTSCCVLKLDLLTCTKEDLDFCAPYEITLRRKDFLHAFIAWFDVWFSHCHKPVVLSTGPHCRYTHWKQTVFYMEDVLVADVGDKVEGMIAVKKSQKNPRDLDIKISYTFNPPHAPAAIENTQFYRLR | soluble
MTKITYKVASEHPFPADAAAAAASLAAYEALDDVTKARVDQMVDWIMKNCLWQFHSRAWDRKRQNEGILGIAAKLLAGEPFTPETPEDRCYWVDSVTLQRAYLATCPWLATMSKGDIRALMKELHARVDYLTVTGSLNEELTDLHYLEHHHHHH | not soluble

Would you kindly look at the next entry?
Kindly note the recorded soluble on expression in E. coli for MHHHHHHSSMDDPIGLFVMRPQDGEVTVGGSITFSARVAGASLLKPPVVKWFKGKWVDLSSKVGQHLQLHDSYDRASKVYLFELHITDAQPAFTGGYRCEVSTKDKFDCSNFNLTVHEAM , which is soluble
